system: T1, Human CD3eg linker (human)
T1 construct: Single chain: epsilon and gamma subunits of human CD3 joined by a 29-mer linker, Flag-tag at the C-terminus; also called recombinant human CD3
T1 chain: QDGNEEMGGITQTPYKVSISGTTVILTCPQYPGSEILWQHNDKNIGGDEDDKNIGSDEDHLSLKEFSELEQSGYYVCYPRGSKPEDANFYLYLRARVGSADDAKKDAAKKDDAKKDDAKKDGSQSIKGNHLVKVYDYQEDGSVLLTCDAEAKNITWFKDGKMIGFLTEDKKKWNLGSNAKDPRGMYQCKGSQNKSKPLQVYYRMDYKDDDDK
experiment.notes: Biacore SPR, vs template H183/L072
We begin with a simple list: items and their reported fold change of affinity.
The answer is to be given in fold; state only the numeric part.

Entry H183/L072 VH H35M (antibody, name in Kabat numbering, V domains shown) VH: QVQLVESGGGLVQPGRSLRLSCAASGFTFSNAWMMWVRQAPGKGLEWVAQIKDKGNAYAAYYAPSVKGRFTISRDDSKNSIYLQMNSLKTEDTAVYYCHYVHYASASTVLPAFGVDAWGQGTTVTVSS VL: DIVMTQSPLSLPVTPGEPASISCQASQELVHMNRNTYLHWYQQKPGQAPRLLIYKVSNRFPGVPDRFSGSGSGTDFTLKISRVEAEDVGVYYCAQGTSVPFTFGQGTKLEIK has what fold change of affinity? 0
